# credit: PubChem BioAssay (NCATS)

Assay: Viability qHTS for spleen associated tyrosine kinase inhibitor (SYKi) naive MV4-11 cells (AID 1963823); further: nearly all actives have a fitted effect of over 40% in size
Settings: MV4-11 AML viability, CellTiter-Glo luminescence, 72 h; series mostly up to 45 µM
Results filed as inconclusive are left out. Calls of active or inactive are those of the source. The call rests on the fitted dose curve; in most records, active means well fitted cell-killing curve with a large enough effect; inconclusive means small, poorly fitted or top-dose-only effect, or effect the other way; inactive means no such curve, though single readings can be large or run the other way.
Give one outcome, nothing more. List: t for active, f for inactive

| molecule | group |
| --- | --- |
| Cc1nnsc1C(=O)Nc1ccc(-n2nc(C(F)(F)F)cc2C(F)(F)F)cc1 | t |
| Cc1cn([C@H]2C[C@H](O)[C@@H](CO)O2)c(=O)nc1N | f |
| CC1(C)Oc2ncnc(N)c2N=C1c1ccc(C2CCC(CC(=O)O)CC2)cc1 (stereo unspecified) | f |

Hey, what did the test say about CCC(C)CC(=O)OC1C(=O)C(CO)=CC(O)C1C(C)C (stereo unspecified) ?
t

Hey, what did the test say about `O=C1CC2(CCCC2)CC(=O)N1` ?
f

Hey, what did the test say about C=CC(C)(C)C12C=C(OC)C(=O)N3C(C(C)C)C(=O)NC31N(OC)c1ccccc12 (stereo unspecified) ?
f
